# Organism: Rattus norvegicus
# PROCEDURE_SUMMARY: Open TG-GATES - Regimen: Daily Repeat
# Format: toxicity, organism-based, Sprague-Dawley
# Set-up: regimen Daily Repeat, gender Male, age 6 weeks
# CONDITION_CONTEXT: in vivo, po, 0 mg/kg, […], tissue Blood, route gavage, dose level Control, time 14 day
RBC below 700 x10_4/ul gives false; RBC at or above it gives true.

INSERT INTO results (compound, class_assignment) VALUES
  ('CN(C)CCC=C1c2ccccc2CCc2ccccc21 [AMITRIPTYLINE]', 'false'),
  ('NC(=O)N/N=C/c1ccc([N+](=O)[O-])o1 [NITROFURAZONE]', 'false'),
  ('CO[C@H]1/C=C/O[C@@]2(C)Oc3c(C)c(O)c4c(O)c(c(/C=N/N5CCN(C)CC5)c(O)c4c3C2=O)NC(=O)/C(C)=C\C=C\[C@H](C)[C@H](O)[C@@H](C)[C@@H](O)[C@@H](C)[C@H](OC(C)=O)[C@@H]1C [RIFAMPIN]', 'true');

###

# Species on record: Rattus norvegicus
# PROCEDURE_SUMMARY: Open TG-GATES - Regimen: Single
# Format: toxicity, organism-based, Sprague-Dawley
# Set-up: regimen Single, gender Male, age 6 weeks
# CONDITION_CONTEXT: in vivo, po, 0 mg/kg, 9 h, tissue Plasma, route gavage, dose level Control
Property: IP; scope: individual molecules
READOUT_LABEL: IP (mg/dL)

INSERT INTO results (molecule, readout_label, numeric_value) VALUES
  ('O=C(O)c1cc(/N=N/c2ccc(S(=O)(=O)Nc3ccccn3)cc2)ccc1O [SULFASALAZINE]', 'IP', 9.3),
  ('CC(=O)Oc1ccccc1C(=O)O [ASPIRIN]', 'IP', 10),
  ('O=C(O)c1cn(C2CC2)c2cc(N3CCNCC3)c(F)cc2c1=O [CIPROFLOXACIN]', 'IP', 10.9),
  ('NC(=O)N1c2ccccc2C=Cc2ccccc21 [CARBAMAZEPINE]', 'IP', 9.3),
  ('COc1ccc(Cc2nccc3cc(OC)c(OC)cc23)cc1OC [PAPAVERINE]', 'IP', 9.1),
  ('NC(=O)N/N=C/c1ccc([N+](=O)[O-])o1 [NITROFURAZONE]', 'IP', 10.6),
  ('COc1ccc2c(c1)c(CC(=O)O)c(C)n2C(=O)c1ccc(Cl)cc1 [INDOMETHACIN]', 'IP', 10.3);

###

# Organism: Rattus norvegicus
# PROCEDURE_SUMMARY: Open TG-GATES - Regimen: Daily Repeat
# Assay type: toxicity, organism-based, Sprague-Dawley
# Set-up: regimen Daily Repeat, gender Male, age 6 weeks
# CONDITION_CONTEXT: in vivo, po, 0 mg/kg, […], tissue Kidney, route gavage, dose level Control, time 28 day
READOUT_LABEL: KIDNEY_L (g)

INSERT INTO assay_data (compound, readout_label, numeric_value) VALUES
  ('CO[C@H]1/C=C/O[C@@]2(C)Oc3c(C)c(O)c4c(O)c(c(/C=N/N5CCN(C)CC5)c(O)c4c3C2=O)NC(=O)/C(C)=C\C=C\[C@H](C)[C@H](O)[C@@H](C)[C@@H](O)[C@@H](C)[C@H](OC(C)=O)[C@@H]1C', 'KIDNEY_L', 1.4),
  ('CSc1ccc2c(c1)N(CCC1CCCCN1C)c1ccccc1S2 (centres undefined)', 'KIDNEY_L', 1.5),
  ('COc1ccc(Cc2nccc3cc(OC)c(OC)cc23)cc1OC', 'KIDNEY_L', 1.4),
  ('NC(=O)N/N=C/c1ccc([N+](=O)[O-])o1', 'KIDNEY_L', 1.5);

###

Below, each entry is listed alongside its reported Lym.
# Species: Rattus norvegicus
# PROCEDURE_SUMMARY: Open TG-GATES - Regimen: Single
# Assay type: toxicity, organism-based, Sprague-Dawley
# Set-up: regimen Single, gender Male, age 6 weeks
# CONDITION_CONTEXT: in vivo, po, 100 mg/kg, 6 h, tissue Blood, route gavage, dose level Low
READOUT_LABEL: Lym (%)

INSERT INTO assay_data (compound, numeric_value) VALUES
  ('O=C(O)c1cn(C2CC2)c2cc(N3CCNCC3)c(F)cc2c1=O', 73),
  ('O=C(O)c1cc(/N=N/c2ccc(S(=O)(=O)Nc3ccccn3)cc2)ccc1O', 73.6),
  ('Clc1ccccc1CN1CCc2sccc2C1', 76),
  ('CCc1cc(C(N)=S)ccn1 [ETHIONAMIDE]', 77.6),
  ('C[C@H](CS)C(=O)N1CCC[C@H]1C(=O)O', 76.4);

###

# Species: Rattus norvegicus
# PROCEDURE_SUMMARY: Open TG-GATES - Regimen: Single
# Type: toxicity, organism-based, Sprague-Dawley
# Set-up: regimen Single, gender Male, age 6 weeks
# CONDITION_CONTEXT: in vivo, po, 0 mg/kg, 3 h, tissue Plasma, route gavage, dose level Control
READOUT_LABEL: GLC (mg/dL)

INSERT INTO assay_data (molecule, units_text, numeric_value) VALUES
  ('CN(C)CCC=C1c2ccccc2CCc2ccccc21', 'mg/dL', 183.6),
  ('O=C(O)c1cc(/N=N/c2ccc(S(=O)(=O)Nc3ccccn3)cc2)ccc1O', 'mg/dL', 196),
  ('COc1ccc(Cc2nccc3cc(OC)c(OC)cc23)cc1OC', 'mg/dL', 193.6),
  ('NC(=O)N1c2ccccc2C=Cc2ccccc21 [CARBAMAZEPINE]', 'mg/dL', 199.2),
  ('C[C@H](CS)C(=O)N1CCC[C@H]1C(=O)O', 'mg/dL', 193.6),
  ('CSc1ccc2c(c1)N(CCC1CCCCN1C)c1ccccc1S2 (configuration not stated)', 'mg/dL', 197.6),
  ('O=C(O)c1cn(C2CC2)c2cc(N3CCNCC3)c(F)cc2c1=O', 'mg/dL', 186.6),
  ('Clc1ccccc1CN1CCc2sccc2C1', 'mg/dL', 204.6),
  ('CCc1cc(C(N)=S)ccn1 [ETHIONAMIDE]', 'mg/dL', 192.4),
  ('CC(=O)Oc1ccccc1C(=O)O', 'mg/dL', 198.2),
  ('NC(=O)N/N=C/c1ccc([N+](=O)[O-])o1', 'mg/dL', 179.2),
  ('Cn1c(=O)c2[nH]cnc2n(C)c1=O.O', 'mg/dL', 190.4);

###

# Species on record: Rattus norvegicus
# PROCEDURE_SUMMARY: Open TG-GATES - Regimen: Daily Repeat
# Assay type: toxicity, organism-based, Sprague-Dawley
# Parameters: regimen Daily Repeat, gender Male, age 6 weeks
# CONDITION_CONTEXT: in vivo, po, 0 mg/kg, 72 h, tissue Blood, route gavage, dose level Control, time 3 day
Parameter: RBC. Scope: all listed entries.
READOUT_LABEL: RBC

INSERT INTO assay_data (compound, readout_label, result) VALUES
  ('CO[C@H]1/C=C/O[C@@]2(C)Oc3c(C)c(O)c4c(O)c(c(/C=N/N5CCN(C)CC5)c(O)c4c3C2=O)NC(=O)/C(C)=C\C=C\[C@H](C)[C@H](O)[C@@H](C)[C@@H](O)[C@@H](C)[C@H](OC(C)=O)[C@@H]1C [RIFAMPIN]', 'RBC', '657.6 x10_4/ul'),
  ('CN(C)CCC=C1c2ccccc2CCc2ccccc21 [AMITRIPTYLINE]', 'RBC', '613.4 x10_4/ul'),
  ('CCCC(CCC)C(=O)O [VALPROIC ACID]', 'RBC', '604.8 x10_4/ul'),
  ('NC(=O)N1c2ccccc2C=Cc2ccccc21 [CARBAMAZEPINE]', 'RBC', '648.8 x10_4/ul'),
  ('Clc1ccccc1CN1CCc2sccc2C1 [TICLOPIDINE]', 'RBC', '622.6 x10_4/ul'),
  ('COc1ccc(Cc2nccc3cc(OC)c(OC)cc23)cc1OC [PAPAVERINE]', 'RBC', '645.6 x10_4/ul'),
  ('Cn1c(=O)c2[nH]cnc2n(C)c1=O.O [THEOPHYLLINE]', 'RBC', '625.4 x10_4/ul'),
  ('CCc1cc(C(N)=S)ccn1 [ETHIONAMIDE]', 'RBC', '601.2 x10_4/ul'),
  ('O=C(O)c1cc(/N=N/c2ccc(S(=O)(=O)Nc3ccccn3)cc2)ccc1O [SULFASALAZINE]', 'RBC', '607.8 x10_4/ul'),
  ('C[C@H](CS)C(=O)N1CCC[C@H]1C(=O)O [CAPTOPRIL]', 'RBC', '625 x10_4/ul');
